B1: NELF-E aptamer (parent)
chain: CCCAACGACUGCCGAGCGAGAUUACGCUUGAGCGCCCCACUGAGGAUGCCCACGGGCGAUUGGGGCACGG

Variants of: B1
PROTOCOL_DESCRIPTION: HiTS-RAP
SETTINGS: with NELF-E (Drosophila)
I'd appreciate it if you marked entries rule met when Kd is lower than 7 nM and rule not met when it is not.

Field: example entries. Status: answers known.
INSERT INTO assay_data (mutation_id, category) VALUES
  ('U10G U47G', 'rule met'),
  ('G18A A19C', 'rule met'),
  ('A5G A67U', 'rule not met'),
  ('A8G U22G', 'rule met'),
  ('C13G U29A', 'rule met');

Query string: Is 7 nM strictly greater than the variant's reported Kd? variant: A46U U47G
Result string: rule met

Query string: Is 7 nM strictly greater than the variant's reported Kd? variant: A4G G32U
Result string: rule met

Query string: Is 7 nM strictly greater than the variant's reported Kd? variant: C13G U47G
Result string: rule met
